tgt: HNF4alpha8 (COS-7 nuclear extract) (Homo sapiens, UniProt P41235-5 1-452)
Sequence: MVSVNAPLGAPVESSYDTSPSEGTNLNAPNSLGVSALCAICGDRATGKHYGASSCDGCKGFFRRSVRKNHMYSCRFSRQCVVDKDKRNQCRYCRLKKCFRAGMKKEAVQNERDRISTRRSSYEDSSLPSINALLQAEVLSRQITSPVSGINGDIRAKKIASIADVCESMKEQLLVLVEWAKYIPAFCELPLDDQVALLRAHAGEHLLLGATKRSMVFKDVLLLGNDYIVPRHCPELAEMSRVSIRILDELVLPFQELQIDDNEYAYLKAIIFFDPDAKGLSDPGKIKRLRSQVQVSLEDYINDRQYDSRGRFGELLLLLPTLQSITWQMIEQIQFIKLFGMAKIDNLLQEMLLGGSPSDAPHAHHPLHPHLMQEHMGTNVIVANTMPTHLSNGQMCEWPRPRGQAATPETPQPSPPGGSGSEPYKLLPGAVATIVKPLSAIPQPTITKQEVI
experimentNotes: protein-binding microarray; COS-7 nuclear extract on double-stranded Agilent 4x180k PBM; binding buffer, salt, pH and temperature not given in the material; high values mean tight binding
measurementParameters: chain copies: 2; label: 3' end of strand 1 on the slide; dsDNA, one strand shown
In all, about 18,000 sequences were measured (“log2 normalized intensity”: median about 0.36, highest 2% from about 7.3 on). What follows is part of a selection rich in the highest values, with near analogues and random picks from the rest.
Label yes (1) when binding signal < 3 log2 normalized intensity; otherwise no (0).

Asked: binding signal strictly < 3 log2 normalized intensity for this sequence? TGCCAAGGAGCCTCTGCAACCTTTGCTCTCGCCTAGGGAGATTAGAGTATCGGTCGA
Given back: no (0)

Asked: For this sequence, is binding signal lower than 3 log2 normalized intensity? TGCACATTCCCTCCAGCAGGGGATGCCCTTGCCTAGGGAGATTAGAGTATCGGTCGA
Given back: yes (1)

Asked: State whether 3 log2 normalized intensity exceeds binding signal recorded for CTGTGCTGCCCTTTGCCCTTTGGGAAGGGGGCCTAGGGAGATTAGAGTATCGGTCGA .
Given back: no (0)

Asked: Strictly below 3 log2 normalized intensity in binding signal? AAACTTCCACTAACTTGAGTGTGCACCCTGGCCTAGGGAGATTAGAGTATCGGTCGA
Given back: yes (1)

Asked: Problem: For the sequence TTATCTTGATGGTTAAAGTCCAATCTTCTGGCCTAGGGAGATTAGAGTATCGGTCGA , is binding signal under 3 log2 normalized intensity?
Given back: no (0)

Asked: Answer whether the sequence GGATGCCCTTTGACCTCTGCTTCCTGCTACGCCTAGGGAGATTAGAGTATCGGTCGA has binding signal strictly less than 3 log2 normalized intensity
Given back: no (0)

Asked: # check: binding signal < 3 log2 normalized intensity for ATTCCCTCCAGCAGGGGATGCCCTTTGACCGCCTAGGGAGATTAGAGTATCGGTCGA
Given back: no (0)

Asked: Just wondering, is binding signal of TAACGGTGAGGGAGGAGACTTTGACCTCTGGCCTAGGGAGATTAGAGTATCGGTCGA below 3 log2 normalized intensity?
Given back: no (0)

Asked: Given AATACTCTGAGTAAACACAGACTTTGGAATGCCTAGGGAGATTAGAGTATCGGTCGA , is recorded binding signal strictly lower than 3 log2 normalized intensity?
Given back: no (0)

Asked: binding signal under 3 log2 normalized intensity? Item: CACATACACCTGCGTGTACTAAGGTCTTAAGCCTAGGGAGATTAGAGTATCGGTCGA
Given back: yes (1)

Asked: Bench note: check whether CCTACCAGTATGCAATGTTAGTCTGGGAAAGCCTAGGGAGATTAGAGTATCGGTCGA shows binding signal below 3 log2 normalized intensity
Given back: yes (1)

Asked: Hello, is binding signal of the following sequence strictly smaller than 3 log2 normalized intensity? AATACTTGCCTAAGGTCAATGTCCTTTTTCGCCTAGGGAGATTAGAGTATCGGTCGA
Given back: no (0)

Asked: Does this sequence meet the criterion binding signal < 3 log2 normalized intensity? ATCAGAGCAAAGTTCAATTTCCAACAAATGGCCTAGGGAGATTAGAGTATCGGTCGA
Given back: no (0)

Asked: API: query returns whether the sequence falls strictly under 3 log2 normalized intensity in binding signal. Query: CCTTTTATTTTCTTATCTGCCTAGGCATTTGCCTAGGGAGATTAGAGTATCGGTCGA
Given back: yes (1)

Asked: hey, is binding signal for TTTTTTTTCTTAATTGCCCTTTGCCCTTTGGCCTAGGGAGATTAGAGTATCGGTCGA lower than 3 log2 normalized intensity or not?
Given back: no (0)

Asked: Please indicate whether the reported binding signal of GGGTGGGGTGCTGCCTTTCCTGTGACTTTTGCCTAGGGAGATTAGAGTATCGGTCGA is strictly below 3 log2 normalized intensity.
Given back: yes (1)

Asked: In the record for GTGGAATTTGTGCTTATTTCCCATCAAGGAGCCTAGGGAGATTAGAGTATCGGTCGA , is binding signal less than 3 log2 normalized intensity?
Given back: yes (1)

Asked: Hi there! Is binding signal for GCAGAGGGACAACTGAGTTACGTAATGTGTGCCTAGGGAGATTAGAGTATCGGTCGA below 3 log2 normalized intensity, do you know?
Given back: yes (1)

Asked: Please state whether binding signal is below 3 log2 normalized intensity for GCCAGAACTGAGCCCTGGTTTATCTGTTGTGCCTAGGGAGATTAGAGTATCGGTCGA
Given back: yes (1)

Asked: Lab note: confirm whether the reported binding signal for this sequence is below 3 log2 normalized intensity, equality not counting. sequence: TAAAATGGACTTTGTGGGCCAAAAGCAGCCGCCTAGGGAGATTAGAGTATCGGTCGA
Given back: yes (1)

Asked: Dear reviewer, please state whether AGAACCTGCCCATGACCTTTGGACTGTGACGCCTAGGGAGATTAGAGTATCGGTCGA has binding signal strictly beneath 3 log2 normalized intensity.
Given back: no (0)

Asked: Does the reported binding signal of the following sequence sit strictly below 3 log2 normalized intensity? ATGGTGTTTGCTTTGTGAAGGCTTATCTGCGCCTAGGGAGATTAGAGTATCGGTCGA
Given back: yes (1)

Asked: Is the reported binding signal for CCCTTTGACCTCTGCTTCCTGCTACAGAGCGCCTAGGGAGATTAGAGTATCGGTCGA strictly below 3 log2 normalized intensity?
Given back: yes (1)

Asked: Lab note: confirm whether the reported binding signal for this sequence is below 3 log2 normalized intensity, equality not counting. sequence: GGAGGAGACTTTGACCTCTGCTAGGTTTGGGCCTAGGGAGATTAGAGTATCGGTCGA
Given back: no (0)

Asked: Find out if reported binding signal for AGGCCGGTTGGCCAGGTTCCTCCACCGTCAGCCTAGGGAGATTAGAGTATCGGTCGA is less than 3 log2 normalized intensity
Given back: yes (1)

Asked: For this sequence, is binding signal lower than 3 log2 normalized intensity? GGAGGGAACAGCAAGACTTTGGCCCTGCAGGCCTAGGGAGATTAGAGTATCGGTCGA
Given back: yes (1)

Asked: Strictly below 3 log2 normalized intensity: is that where binding signal of TCTGTCTGAGACCACTTAAGCCTGGAATTCGCCTAGGGAGATTAGAGTATCGGTCGA sits?
Given back: yes (1)

Asked: Could you please tell me whether binding signal recorded for TACTTTGCTTCCAAGTTATGCAGACCTTTGGCCTAGGGAGATTAGAGTATCGGTCGA is less than 3 log2 normalized intensity?
Given back: yes (1)

Asked: Consider GAGAGTTTTCCTTGGCTGTGCTGCCCTTTGGCCTAGGGAGATTAGAGTATCGGTCGA . Does its binding signal lie strictly below 3 log2 normalized intensity?
Given back: no (0)

Asked: binding signal strictly < 3 log2 normalized intensity for this sequence? TTGTGGCAGTGAGAACAGGTTCATTCTTTAGCCTAGGGAGATTAGAGTATCGGTCGA
Given back: yes (1)

Asked: In the record for TTAAGAACTGGAGTAAAGGTCACTCTTGCTGCCTAGGGAGATTAGAGTATCGGTCGA , is binding signal less than 3 log2 normalized intensity?
Given back: no (0)

Asked: Does the reported binding signal of GAGAGAAAAAATCAGAGAGCAAAGGTGATCGCCTAGGGAGATTAGAGTATCGGTCGA stay below 3 log2 normalized intensity?
Given back: yes (1)

Asked: Lab log: compare recorded binding signal with 3 log2 normalized intensity; is it strictly lower for GGGCAGGGTCAGAACCTGCCCATGACCTTTGCCTAGGGAGATTAGAGTATCGGTCGA ?
Given back: no (0)

Asked: # strict comparison: is reported binding signal < 3 log2 normalized intensity? input = TTTACTTATCATAAGTCAGCCTGGCTGAAGGCCTAGGGAGATTAGAGTATCGGTCGA
Given back: yes (1)

Asked: Consider GGGTCAGAACCTGCCCATGACCTTTGGACTGCCTAGGGAGATTAGAGTATCGGTCGA . Does its binding signal lie strictly below 3 log2 normalized intensity?
Given back: no (0)

Asked: Item CTGTTTGACCAAAGCTACTCATCATGAACTGCCTAGGGAGATTAGAGTATCGGTCGA : binding signal beneath 3 log2 normalized intensity, strictly?
Given back: yes (1)
